Target: T1, cynomolgus SIRPα expressed on cells (cynomolgus monkey, UniProt A0A2K5VYQ9 31-507)
T1 construct: whole, on cells; also called ExpiCHO-S (cySIRPα)
T1 sequence: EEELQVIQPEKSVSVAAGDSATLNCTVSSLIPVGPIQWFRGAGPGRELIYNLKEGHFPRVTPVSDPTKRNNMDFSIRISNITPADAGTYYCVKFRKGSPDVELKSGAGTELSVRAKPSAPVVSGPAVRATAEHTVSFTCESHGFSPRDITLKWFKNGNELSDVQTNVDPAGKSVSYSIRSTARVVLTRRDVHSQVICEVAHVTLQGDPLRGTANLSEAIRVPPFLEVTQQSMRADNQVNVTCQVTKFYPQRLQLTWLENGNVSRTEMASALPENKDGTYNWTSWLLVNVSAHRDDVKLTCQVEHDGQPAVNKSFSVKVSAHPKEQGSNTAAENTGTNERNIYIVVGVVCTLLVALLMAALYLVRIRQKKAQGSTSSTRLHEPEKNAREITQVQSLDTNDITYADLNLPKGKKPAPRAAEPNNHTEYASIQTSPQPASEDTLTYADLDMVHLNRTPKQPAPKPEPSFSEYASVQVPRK
Assay: flow cytometry, ExpiCHO-S cells
measuredProperty: EC50 (µg/mL)
Answers are plain numbers, in µg/mL.

Given the entry anti-SIRPα antibody 2 (antibody, human IgG1, kappa, L234A L235A, V domains shown, Rabbit variable regions on human IgG1 LALA / kappa) VH: QSVEESGGRLVTPGTPLTLTCTVSGFSLSNYAMHWVRQAPGKGLEWIGIIYTGGATSYATWAKGQFTISKTSTTVDLKITSPTTEDTATYFCARGDRDGYAYFNIWGPGTLVTVSL VL: QIVMTQTPFSVSAVVGGTVTIKCQASHNIGSWLAWYQQKPGQRPKLLIYDASTLASGVSSRFKGSGSGTEFTLTISGVESADAATYYCQQGYGISYVHNVFGGGTEVVVKR , report its measured EC50.
0.16
